For each of the molecules below, state its Extinction.
Tested on: Pinto beans
assay-explanation: Preservation of chlorophyll in Pinto beans (Example 17)
Format: in vivo
run-parameters: 665 mμ, 200 mg fresh weight, 2 weeks; zeatin 20 ppm, kinetin/benzyladenine 30 ppm, others 200 ppm
Give bare numbers.

Check out these entries, answers already filled in.
c1ccc(CNc2ncnc3[nH]cnc23)cc1 : 1.229
N=C(N)N.N=C(N)N.Oc1nnc(O)c2ccccc12 : 0.985
CCC[n+]1c[nH]c2ccccc21.[Br-] [N--(n-Propyl)-benzimidazolium bromide, N-(n-propyl)-benzimidazolium bromide] : 1.081
C/C(=C\CNc1ncnc2[nH]cnc12)CO : 1.283

-- ask Write down Extinction measured for item c1coc(CNc2ncnc3[nH]cnc23)c1
-- reply 1.120
